Source listed as the nanobody polyreactivity screen of Harvey et al. (2022).

test: yeast display, Sf9 membrane polyspecificity reagent, FACS + sequencing; frameworks hold sequencing errors
valueType: polyreactivity (PSR sort gate)

QVQLVESGGGLVQAGGSLRISCAASGRTFQFNVMGWYRQAPGKERELVASIRSGGSTNYADSVKGRFTISRDNAKNTVYLQMNSLKPEDTAVYYCAARVASPYYRYDYWGQGTQVTVSS : low polyreactivity
QVQLVESGGGLVQAGGSLRLSCAASGSTFGNNAMGWYRPAPGKERELVAGIRRSSNTYYADSVKGRFTISRDNAKNTVYLQMNSLKPEDTAVYCCNADNILYGSTLDYWGQGTQVTVSS : low polyreactivity

----------
test: yeast display, Sf9 membrane polyspecificity reagent, FACS + sequencing; frameworks hold sequencing errors
valueType: polyreactivity (PSR sort gate)

Worked examples follow.
QVQLVESGGGLVQAGGSLRLSCAASGFTFARYAMGWYIQAPGKERELVASISGSGESTYYADSVKGRFTISRDNAKNTVYLQMNSLKPEDTAVYYCAAEGSFLFFSWYWPEYDYWGQGTQVTVSS : high polyreactivity
QVQLVESGGGLVQAGGSLRLSCAASGSIFKRYAMGWYRQAPGKERELVAAISRRGASTYYADSVKGRFTISRDNAKNTVYLQMNSLKPEDTAVYYCNAYLPRQGPSGRPRSQYDSWGQGTQVTVSS : high polyreactivity
QLQLVESGGGLVQAGGSLRLSCAASGSIFLIYDMGWYRQAPGKEMELVAAISNSVGSTYADSVKGRFTISRDNAKNTVYLQMNSLKPEDTAVYYCNADSGPIDGRGGYWGQGTQVTVSS : low polyreactivity
QVQLVESGGGLVQAGGSLRLSCAASGRIFVVYAMGWYRQAPGKERELVAAITYGGGSTHYADSVKGRFTISRDNAKNTVYLQMNSLKPVDTAVYYCAADVYLVKYDYWGQGTQVTVSS : low polyreactivity

Now for another entry.
Request: Need polyreactivity (PSR sort gate), item QVQLVESGGGLVQAGGSLRLSCAASVRTSRLYAMGWYRQAPGKERELDASITRGGSTYADSVKGRFTISRDNAKNTVYLQMNSLKPEDTAVDYCNAELYVPPYDDDYWGQGTQVTVSS
Result: high polyreactivity

----------
test: yeast display, Sf9 membrane polyspecificity reagent, FACS + sequencing; frameworks hold sequencing errors
valueType: polyreactivity (PSR sort gate)

Worked examples follow.
QVQLEESGGGLVQAGGSLRISCAASGFTFSHNAMGWYRQAPGKERELVAAISKGGSSTYYADSVKGRFTISRDNAKNTVYLQMNSLKPEDTAVYYCARPSPHKGYDYWGQGTQVTVSS : high polyreactivity
QVQLVESGGGLVQAGGSHRFSCAASGFTVWEYAMGLYRQAPGKERELVAAISRGTSTYYADSVKGRFTISRDNAKNTVYLQMNSLKPEDTAVYYCAAAPSYYPARHGYWGQGSQVTVSS : low polyreactivity
QVQLVESGGGLVQAGGSLRLSCAASGSIFWSYAMGWYRQAPGKERELVAAINWSGGRTYYADSVKGRFTISRDNAKNTVYLQMNSLKPEDTAVYYCNAPVHTAQGDEYDYWGQGTQVTVSS : high polyreactivity
QVQLVESGGGLVQAGGSLRLSCAASGSIFAVYVMGWYRQAPGKDRELVAAIRRGGTTTYADSVKGRFTISRDNAKTTVYLQMNSLKPEDTAVYYCAADSYARYLYSYYSPYDYWGQGTQVTVSS : low polyreactivity

Now for another entry.
Request: Need polyreactivity (PSR sort gate), item QVQLVDSGGGLVQAGGSLRLSCAASGSIFLLYVMGWYRQAPGKERELVAAISSGGSTNYADSVKGRFTISRDNAKITVYLQMNSLKPEDTAVYYCNAVAGPQGVKLYDYWGQGTQVTVSS
Result: low polyreactivity
